molecular target: HSA (Homo sapiens, UniProt P02768); assay: Drug screening: HSA binding constants from DSC thermograms; conditions: Measured KD from ΔG^037, binding to HSA; second value marked 2)
Sequence (P02768 25-609): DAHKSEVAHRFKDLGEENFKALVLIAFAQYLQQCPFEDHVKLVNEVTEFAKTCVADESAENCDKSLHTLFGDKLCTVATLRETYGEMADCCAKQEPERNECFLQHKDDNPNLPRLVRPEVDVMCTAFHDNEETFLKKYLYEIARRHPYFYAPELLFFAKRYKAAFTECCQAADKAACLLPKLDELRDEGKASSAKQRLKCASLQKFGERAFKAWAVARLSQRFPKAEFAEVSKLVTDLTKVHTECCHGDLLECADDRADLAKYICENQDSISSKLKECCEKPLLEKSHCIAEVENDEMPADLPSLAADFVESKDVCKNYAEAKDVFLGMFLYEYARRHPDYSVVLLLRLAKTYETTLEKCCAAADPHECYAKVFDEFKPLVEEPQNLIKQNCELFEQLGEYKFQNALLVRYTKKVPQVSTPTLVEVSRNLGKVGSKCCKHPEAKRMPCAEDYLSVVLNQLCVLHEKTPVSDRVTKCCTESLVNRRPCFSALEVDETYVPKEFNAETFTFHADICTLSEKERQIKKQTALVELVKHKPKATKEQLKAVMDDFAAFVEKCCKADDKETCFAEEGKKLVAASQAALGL
property label: Kd (µM)
Report only the number, with the unit µM understood.

Q. Return reported Kd; argument: CC(NC(C)(C)C)C(=O)c1cccc(Cl)c1 (stereo not shown)
A. 10.2

----------
Reported Kd is given for each of the following compounds.
biological target: HSA (Homo sapiens); experiment: Drug screening: HSA binding constants from DSC thermograms; conditions: read-out: Measured KD From TM; binding to HSA; single value or value marked 1)
Hi! Could you send only the number? It should be in µM, unit omitted.

The examples below pair each entry with its known result.
[
  {
    "compound": "Cc1c(C2(c3cc(Br)c(O)c(Br)c3C)OS(=O)(=O)c3ccccc32)cc(Br)c(O)c1Br",
    "property label": "Kd",
    "scale unit": "µM",
    "meas value": 4.97
  },
  {
    "compound": "CNC[C@H](O)[C@@H](O)[C@H](O)[C@H](O)CO.CNC[C@H](O)[C@@H](O)[C@H](O)[C@H](O)CO.O=C([O-])CN(CCN(CC(=O)[O-])CC(=O)O)CCN(CC(=O)O)C(COCc1ccccc1)C(=O)[O-].[Gd+3] (stereo not drawn)",
    "property label": "Kd",
    "scale unit": "µM",
    "meas value": 1380
  }
]

Then there is this compound:
Q. Which Kd reading was recorded for the compound CCCCCc1cc(O)c2c(c1)OC(C)(C)[C@@H]1CCC(C)=C[C@@H]21 [Δ9-tetrahydrocannabinol (THC), Δ9-tetrahydrocannabinol] ?
A. 0.025
